Consider the following compounds and their measured DC50 readings.
- system name: ALK protein in H3122 (EML4-ALK) cells (Homo sapiens)
- Construct: EML4 (Echinoderm microtubule-associated protein-like 4, Q9HC35) fusion partner, variant 1; host or cells: NCI-H3122 lung adenocarcinoma cells; the other entry of the earlier key: EML4 (Q9HC35, Echinoderm microtubule-associated protein-like 4)
- Sequence (Q9UM73 with tags, fused parts or gaps): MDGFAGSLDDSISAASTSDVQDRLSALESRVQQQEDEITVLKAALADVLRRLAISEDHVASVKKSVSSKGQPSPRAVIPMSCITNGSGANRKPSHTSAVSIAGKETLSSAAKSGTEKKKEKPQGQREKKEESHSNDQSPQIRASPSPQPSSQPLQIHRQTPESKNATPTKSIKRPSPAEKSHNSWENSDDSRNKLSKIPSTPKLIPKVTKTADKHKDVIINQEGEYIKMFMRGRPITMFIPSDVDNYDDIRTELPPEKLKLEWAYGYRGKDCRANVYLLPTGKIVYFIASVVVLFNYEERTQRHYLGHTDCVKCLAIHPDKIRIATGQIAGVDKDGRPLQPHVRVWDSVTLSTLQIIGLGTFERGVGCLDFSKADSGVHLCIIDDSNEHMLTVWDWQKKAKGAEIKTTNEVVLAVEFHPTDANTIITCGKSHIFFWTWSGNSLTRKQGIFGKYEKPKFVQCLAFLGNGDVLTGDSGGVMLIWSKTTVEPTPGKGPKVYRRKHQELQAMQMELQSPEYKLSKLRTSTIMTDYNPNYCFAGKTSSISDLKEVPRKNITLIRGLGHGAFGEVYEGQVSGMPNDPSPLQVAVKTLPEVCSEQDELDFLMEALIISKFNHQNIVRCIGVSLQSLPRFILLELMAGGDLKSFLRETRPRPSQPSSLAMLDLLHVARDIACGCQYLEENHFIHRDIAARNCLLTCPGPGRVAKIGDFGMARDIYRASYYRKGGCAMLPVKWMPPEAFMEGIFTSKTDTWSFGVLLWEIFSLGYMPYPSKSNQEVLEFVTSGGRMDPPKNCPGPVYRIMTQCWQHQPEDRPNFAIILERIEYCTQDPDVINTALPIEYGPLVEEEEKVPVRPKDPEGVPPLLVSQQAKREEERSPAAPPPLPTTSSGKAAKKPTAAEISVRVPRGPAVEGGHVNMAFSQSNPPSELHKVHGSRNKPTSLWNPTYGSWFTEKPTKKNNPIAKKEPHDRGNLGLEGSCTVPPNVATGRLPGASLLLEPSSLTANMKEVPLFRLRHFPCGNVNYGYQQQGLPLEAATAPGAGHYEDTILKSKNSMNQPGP
- experiment: Western blot of ALK protein level (degradation, DC50), ALK phosphorylation and downstream signaling in H3122 cells
- Type: cell-based
- reported conditions: ALK protein degradation in H3122 cells
recorded metric: DC50

compound | reported value
Cc1cc(Nc2ncc(Cl)c(Nc3ccccc3S(=O)(=O)C(C)C)n2)c(OC(C)C)cc1C1CCN(C(=O)CCCCCCCC(=O)N[C@H](C(=O)N2C[C@H](O)C[C@H]2C(=O)NCc2ccc(-c3scnc3C)cc2)C(C)(C)C)CC1 [SIAIS074024] | 10 to 50 nM
CCc1cc2c(cc1N1CCN(C(=O)CCCNc3cccc4c3C(=O)N(C3CCC(=O)NC3=O)C4=O)CC1)C(C)(C)c1[nH]c3cc(C#N)ccc3c1C2=O (centres unmarked) [SIAIS164024] | 1 to 10 nM
COc1cc(N2CCC(NC(=O)CCCCCC(=O)N[C@H](C(=O)N3C[C@H](O)C[C@H]3C(=O)NCc3ccc(-c4scnc4C)cc3)C(C)(C)C)CC2)ccc1Nc1ncc(Cl)c(Nc2ccccc2P(C)(C)=O)n1 [SIAIS164146] | 0.1 to 10 nM
COc1cc(N2CCC(N3CCN(C(=O)CCCC(=O)N[C@H](C(=O)N4C[C@H](O)C[C@H]4C(=O)NCc4ccc(-c5scnc5C)cc4)C(C)(C)C)CC3)CC2)ccc1Nc1ncc(Cl)c(Nc2ccccc2P(C)(C)=O)n1 [SIAIS164121] | 50 to 100 nM
COc1cc(N2CCC(N3CCN(C(=O)CCNc4cccc5c4C(=O)N(C4CCC(=O)NC4=O)C5=O)CC3)CC2)ccc1Nc1ncc(Cl)c(Nc2ccccc2P(C)(C)=O)n1 (centres unmarked) [SIAIS164019] | 10 to 20 nM

====

- experiment: Pharmacokinetics (PK) study in SD rat (IV, IP, PO; LC-MS/MS)
- Format: in vivo
- reported conditions: Sprague-Dawley, serum, IV, single dose 2 mg/kg, read-out: serum clearance half-life (converted)
# Lookup of reported half-life keyed by entry
recorded metric: half-life

compound | reported value
COc1cc(N2CCC(N3CCN(C(=O)CCOCCOCCNc4cccc5c4C(=O)N(C4CCC(=O)NC4=O)C5=O)CC3)CC2)ccc1Nc1ncc(Cl)c(Nc2ccccc2P(C)(C)=O)n1 (stereo not shown) | ~0.85 h
COc1cc(N2CCC(N3CCN(C(=O)CCCCCCNc4cccc5c4C(=O)N(C4CCC(=O)NC4=O)C5=O)CC3)CC2)ccc1Nc1ncc(Cl)c(Nc2ccccc2P(C)(C)=O)n1 (stereo not shown) | ~7.71 h
COc1cc(N2CCC(N3CCN(C(=O)CNc4cccc5c4C(=O)N(C4CCC(=O)NC4=O)C5=O)CC3)CC2)ccc1Nc1ncc(Cl)c(Nc2ccccc2P(C)(C)=O)n1 (stereo not shown) | ~4.65 h
COc1cc(N2CCC(NC(=O)CCCNc3cccc4c3C(=O)N(C3CCC(=O)NC3=O)C4=O)CC2)ccc1Nc1ncc(Cl)c(Nc2ccccc2P(C)(C)=O)n1 (stereo not shown) | ~4.73 h
